Quantity: melting point

{"columns": ["Compound", "melting point"],
 "data": [
  ["CCn1cc(C(=O)O)c(=O)c2cc(N)c(-c3cc(C)nc(C)c3)cc21", "288 to 290 °C"],
  ["CC1OC(=O)Nc2ccc(-c3cccc(Cl)c3)cc21 (stereo not given)", "155 to 156 °C"],
  ["CC(C)(Cc1ccccc1)C(NC(=O)c1cccnc1)Nc1c(Nc2cccnc2)c(=O)c1=O (stereo not given)", "220 to 222 °C"]
]}

Respectfully, I request melting point for each entry included below.
1. CC(=O)Oc1ccc(C(=O)Oc2ccc(OC(=O)c3ccc(OC(C)=O)cc3)c(C)c2)cc1
2. CC1Cc2cc(Br)cc(S(N)(=O)=O)c2O1 (stereo not given)
3. O=C(OCC1OC(n2ccc(=O)[nH]c2=O)C(OC(=O)c2ccccc2)C1OC(=O)c1ccccc1)c1ccccc1 (stereo not given)
4. CC(Cc1ccc2c(c1)OCO2)C(=O)O (stereo not given)

Reply text:
["128 to 130 °C", "167 to 169 °C", "143 to 144 °C", "121 °C"]

Respectfully, I request melting point for each entry included below.
1. CCCCCCCCCCCCCCOc1ccc2c(C)c(C(=O)O)oc2c1
2. COc1cc(OC)nc(Oc2cccc3cc(C)oc(=O)c23)n1
3. Cn1c(=O)cc(-c2cccc(O)c2)c2cccnc21

Reply text:
105 to 108 °C
188 to 190 °C
260 to 261 °C
